Quick reference: pIC50 of the listed items.
Molecular target: recombinant human TTLL4 catalytic domain (Homo sapiens)
Construct: TTLL4 catalytic domain (composed of residues 561-1199)
Sequence (Q14679 561-1199): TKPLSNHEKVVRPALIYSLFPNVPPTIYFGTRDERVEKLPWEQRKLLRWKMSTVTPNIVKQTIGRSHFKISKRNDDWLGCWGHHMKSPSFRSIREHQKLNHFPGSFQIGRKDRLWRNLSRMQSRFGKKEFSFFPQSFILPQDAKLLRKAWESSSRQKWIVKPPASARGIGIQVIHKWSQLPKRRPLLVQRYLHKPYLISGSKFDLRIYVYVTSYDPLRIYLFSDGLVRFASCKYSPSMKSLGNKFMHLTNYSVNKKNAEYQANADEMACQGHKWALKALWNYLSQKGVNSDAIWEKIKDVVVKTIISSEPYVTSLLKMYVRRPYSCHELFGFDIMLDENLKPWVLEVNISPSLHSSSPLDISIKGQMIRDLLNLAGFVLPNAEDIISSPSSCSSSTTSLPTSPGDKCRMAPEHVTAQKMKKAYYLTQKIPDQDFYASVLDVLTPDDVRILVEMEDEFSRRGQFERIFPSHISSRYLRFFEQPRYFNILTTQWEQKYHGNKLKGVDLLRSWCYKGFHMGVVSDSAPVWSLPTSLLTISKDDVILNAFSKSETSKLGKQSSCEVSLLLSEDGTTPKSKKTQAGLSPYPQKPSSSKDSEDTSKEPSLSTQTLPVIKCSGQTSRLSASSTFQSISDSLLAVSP
Test: TTLL4 activity immunoassay (anti-glu immuno-detection of glutamylated Nap2 substrate)
Details: 0.2 millimolar ATP, 1 millimolar glutamic acid, 30° C., 10 minutes, read-out: in vitro TTLL4 IC50
Please note pIC50 is a logarithmic value: minus log10 of concentration in mol/L. Answer with that number alone.

Value sought: pIC50, system recombinant human TTLL4 catalytic domain (Homo sapiens), item O=C(Cn1c(=O)c(F)cn(C2CCCO2)c1=O)N1N=C(c2ccc(Cl)cc2)CC1c1ccco1 (centres unmarked) [Candidate 2] . Result: 4.40

Now for another entry.
GET /values?item= COc1ccc(-c2cc3c(SCC(=O)Nc4c(C)cc(C)cc4C)nccn3n2)cc1 [Candidate 1] &system= recombinant human TTLL4 catalytic domain (Homo sapiens) returns pIC50: 5.05

Cited source: patent US20250360126A1
